Each entry below carries its reported Ki.
Target: MASP-2 (CCP1-CCP2-SP) (Homo sapiens, UniProt O00187)
Construct: 15 μL of Enzyme MASP-2 (CCP1-CCP2-SP) in Assay Buffer
Sequence (O00187 445-686 limits assumed): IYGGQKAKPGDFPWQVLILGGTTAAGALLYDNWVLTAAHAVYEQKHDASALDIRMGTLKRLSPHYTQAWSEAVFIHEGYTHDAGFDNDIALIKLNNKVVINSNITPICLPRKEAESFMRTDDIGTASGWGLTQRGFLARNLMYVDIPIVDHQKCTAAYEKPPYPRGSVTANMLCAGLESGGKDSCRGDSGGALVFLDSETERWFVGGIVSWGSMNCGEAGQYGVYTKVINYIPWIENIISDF
Sequence (O00187 298-444 partner limits assumed): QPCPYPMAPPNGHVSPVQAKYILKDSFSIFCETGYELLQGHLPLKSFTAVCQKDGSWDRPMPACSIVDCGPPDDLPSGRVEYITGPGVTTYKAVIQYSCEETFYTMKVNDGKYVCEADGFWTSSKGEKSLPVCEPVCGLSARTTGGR
Assay: Enzymatic Assay for MASP-2
Conditions: fluorogenic substrate based on C2 cleavage site, room temperature, 20 mM HEPES pH 7.4
Structures can show the parent of a compound that is named as a salt.

In the examples that follow, each entry is paired with its recorded Ki.
{"compound": "Cn1cc(NS(=O)(=O)Cc2ccccc2)c(=O)n(CC(=O)NCc2ccc(C(=N)N)cc2)c1=O [Compound 37, Trifluoroacetate]", "val": "500 to 2500 nM"}
{"compound": "Cn1cc(-c2cnc(NCCC(F)F)c(=O)n2CC(=O)NCc2cc3cnccc3[nH]2)cn1 [Compound 125, trifluoroacetate]", "val": "< 500 nM"}
{"compound": "COc1ccc(C2(CNc3ncc(-c4ccccc4)n(CC(=O)NCc4cc5cnccc5[nH]4)c3=O)CC2)cc1 [Compound 61, trifluoroacetate]", "val": "< 500 nM"}

Q) Given the compound Cc1nn(C2CC2)cc1-c1cnc(NCCc2ccccc2)c(=O)n1CC(=O)NCc1cc2cnccc2[nH]1 , what is its reported Ki?
A) < 500 nM
